The following molecules are listed with their measured inhibition values.
- target: N-glycosylase/DNA lyase (Homo sapiens);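 further: OGG1 cleavage of a quenched duplex DNA oligonucleotide, coupled to APE1 for strand incision, read as fluorescence at 594 nm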
- runConditions: Compound Concentration 10.0 uM, Hit No
- Description: Inhibition of OGG1 by quantifying inhibition of OGG1-mediated cleavage and dissociation of quenched duplex DNA oligonucleotides, measured as fluorescence at 594 nm. To generate a functional strand incision and increase turn-over this assay is coupled to APE1.
measurementName: inhibition (%)

• CC(CNS(=O)(=O)C(C)C)c1ccc(-c2ccc(C#N)cc2)cc1 (centres undefined) = -4.77
• O=c1ccn([C@@H]2O[C@H](COP(=O)(O)OP(=O)(O)O)[C@@H](O)[C@H]2O)c(=O)[nH]1 = -4.12
• Cc1cc(-c2ccnc(Nc3cnn(C)c3)n2)ccc1CNC(=O)N1CC(OC(C)C)C1 = 9.56
• FC(F)(F)c1c(N2CCC(c3ccccc3)CC2)ccn2c(CC3CC3)nnc12 = 0.771
• Cc1ccc(O)c([C@H](CCN(C(C)C)C(C)C)c2ccccc2)c1 = -3.4
• COc1cc(-c2cncc(-c3ccc(N4CCN(C(C)C)CC4)cc3)c2C)cc(F)c1C(N)=O = 10.3
• O=c1ccc2c(OCCCCc3ccccc3)c3ccoc3cc2o1 = 0.716
• Cc1cnc(-c2cc(Cl)ccc2F)cc1-n1c(=O)n(CC(N)=O)c2ccccc21 = -7.14
• CC[C@H]1[C@@H](O)[C@@H]2[C@H](CC[C@]3(C)[C@@H]([C@H](C)CCC(=O)O)CC[C@@H]23)[C@@]2(C)CC[C@@H](O)C[C@@H]12 = 26.2

###

The following compounds are listed with their measured inhibition values.
- target: UniProt:Q969S2
- Sequence (Q969S2 whole entry): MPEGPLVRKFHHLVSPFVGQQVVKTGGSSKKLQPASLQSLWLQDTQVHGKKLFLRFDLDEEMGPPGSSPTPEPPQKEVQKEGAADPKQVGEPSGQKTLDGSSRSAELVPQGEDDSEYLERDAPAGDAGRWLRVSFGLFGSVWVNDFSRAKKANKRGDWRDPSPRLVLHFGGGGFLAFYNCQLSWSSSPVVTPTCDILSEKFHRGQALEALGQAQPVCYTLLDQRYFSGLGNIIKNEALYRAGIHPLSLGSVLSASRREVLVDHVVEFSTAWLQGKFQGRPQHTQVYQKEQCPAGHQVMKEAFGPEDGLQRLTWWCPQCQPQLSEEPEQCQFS
- runConditions: Compound Concentration 10.0 uM, Hit No
- Description: Inhibition of NEIL2 by quantifying inhibition of NEIL2-mediated cleavage and dissociation of quenched duplex DNA oligonucleotides, measured as fluorescence at 594 nm.
measurementName: inhibition

* CCOC(=O)c1cc(C#N)c(N2CCC(C(=O)NS(=O)(=O)Cc3ccccc3)CC2)nc1C | -3.73%
* COc1cc(C(=O)O)ncc1C#Cc1ccccc1NS(=O)(=O)c1cccc2c(N(C)C)ccnc12 | 6.91%
* CCCCC[C@H](O)/C=C/[C@H]1CCC(=O)[C@@H]1CCCCCCC(=O)O | 4.01%
* NCCc1ccc(O)c(O)c1 | -3.23%
* Cc1ccc(S(=O)(=O)Nc2ccc(-n3nc(C(F)(F)F)cc3C(F)(F)F)cc2)cc1 | 5%
* Cn1cc(-c2ccc3occ(-c4ccccc4-c4ccccc4)c3n2)cn1 | 1.31%
* CCOc1nc2cccc(C(=O)O)c2n1Cc1ccc(-c2ccccc2-c2nnn[nH]2)cc1 | 7%
* O=C(O)c1cc(-c2ccc(C3CCNCC3)cc2)c2ccc(-c3ccc(C(F)(F)F)cc3)cc2c1 | 1.86%
* Oc1cc2c(cc1O)C(c1ccccc1)CNCC2 (stereo not given) | 7.5%
* Cc1onc(O)c1CC(N)C(=O)O (stereo not given) | -2.64%

###

- target: Endonuclease 8-like 1 (Homo sapiens) (UniProt Q96FI4);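 further: fluorescence at 594 nm from quenched duplex DNA oligonucleotides released by NEIL1 cleavage and strand separation, reported as reduction of this enzyme activity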
- Sequence (Q96FI4 whole entry): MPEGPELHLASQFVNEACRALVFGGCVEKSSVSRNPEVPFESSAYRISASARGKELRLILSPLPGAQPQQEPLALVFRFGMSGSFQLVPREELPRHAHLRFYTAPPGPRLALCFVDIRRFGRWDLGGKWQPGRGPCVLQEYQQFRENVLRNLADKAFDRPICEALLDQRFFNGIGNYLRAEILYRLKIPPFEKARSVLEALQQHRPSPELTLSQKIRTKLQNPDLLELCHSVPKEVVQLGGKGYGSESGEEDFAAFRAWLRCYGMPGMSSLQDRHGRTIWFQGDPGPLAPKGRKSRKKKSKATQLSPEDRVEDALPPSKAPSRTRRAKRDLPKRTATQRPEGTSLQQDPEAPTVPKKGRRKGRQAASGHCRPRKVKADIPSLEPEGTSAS
- runConditions: Compound Concentration 10.0 uM, Hit No
- Description: Inhibition of NEIL1 by quantifying inhibition of NEIL1-mediated cleavage and dissociation of quenched duplex DNA oligonucleotides, measured as fluorescence at 594 nm.
The following compounds are listed with their measured inhibition values.
measurementName: inhibition (%)

- N=C(N)NCCC[C@H](NC(=O)COCC(c1ccccc1)c1ccccc1)C(=O)O: 7.21
- O=C(Cc1ccccc1)Nc1nc2ccc(Cl)cc2c2nc(-c3ccco3)nn12: -6.88
- C[C@]1(C(=O)N(CCCC(=O)O)Cc2cccc(Cl)c2)CCN1C(=O)c1csc2ccccc12: 3.5
- CC1CCN(CC[C@H]2CCCN2S(=O)(=O)c2cccc(O)c2)CC1: 8.25
- O=C(N[C@@H]1C2CCN(CC2)[C@H]1Cc1cccnc1)c1cc2ccccc2o1: 5.2
- Cn1c(C2(NC(=O)c3ccc(NCC4CCCCC4)nc3)CCC2)nc2ccc(/C=C/C(=O)O)cc21: 2.89
- CC(C)c1onc(-c2c(Cl)cccc2Cl)c1COc1ccc(/C=C/c2cccc(C(=O)O)c2)c(Cl)c1: -5.29
- C=C(C)[C@H]1CN[C@H](C(=O)O)[C@H]1CC(=O)O: -4.88
- CN1CCC(c2c[nH]c3ccc(O)cc23)CC1: -2.51
- CCCC(=O)C1CCN(c2ncnc3c2CN(C(=O)c2ccc(-c4ccccc4)cc2)CC3)CC1: 0.75
- CC[C@@H](C[C@H]1COC(N)=N1)c1ccccc1: 8.31
- C[C@@H]1CN(c2cc(-c3nn(C)c4ccc(OC5(C)CC5)cc34)ncn2)C[C@H](C)O1: 4.71
- COc1cc(C(=O)N(CCC2CCCN2C)C/C(C)=C/c2ccccc2F)cc(OC)c1OC (stereo not given): 4.16
- Clc1cccc(COc2cncc(N3CCNCC3)n2)c1: 5.13
- Cc1ccccc1N1CCN(S(=O)(=O)C[C@]23CC[C@H](C[C@@H]2NC(=O)[C@@H](N)CCS(C)(=O)=O)C3(C)C)CC1: 10.9
- CS(=O)(=O)c1ccc(C(=O)Nc2ccc(Cl)c(-c3ccccn3)c2)c(Cl)c1: 3.5
- CCC(=O)Nc1cccc(Oc2nc(Nc3ccc(N4CCN(C)CC4)cc3OC)ncc2Cl)c1: -1.18
- CC(C)S(=O)(=O)c1ccc2nccc(Nc3ccc4scnc4c3)c2c1: -7.92
- CCC[C@@H]1CNCc2c1[nH]c(=O)c(C#N)c2N1CCC2(CC1)CC2: -1.35
- COc1cccc(OC)c1-c1cc(C(=O)NC2(C(=O)O)C3CC4CC(C3)CC2C4)nn1-c1ccnc2cc(Cl)ccc12 (stereo not given): -4.95
